Test system: Staphylococcus aureus PB0601
Construct: PB0601
method_summary: microbe, parasite or virus in culture
Parameters: Broth microdilution MIC in cation-adjusted MHB-Ca2+, growth inhibition per EUCAST reading
condition: PB0601, 16 h, replicate 2
endpoint: MIC (µg/mL)
# unit: µg/mL | format: bare number

Given item CCCCCCCCCC(=O)N[C@@H](Cc1c[nH]c2ccccc12)C(=O)N[C@H](CC(N)=O)C(=O)N[C@@H](CC(=O)O)C(=O)N[C@@H]1C(=O)NCC(=O)N[C@@H](CCCN)C(=O)N[C@@H](CC(=O)O)C(=O)N[C@H](C)C(=O)N[C@@H](CC(=O)O)C(=O)NCC(=O)N[C@H](CO)C(=O)N[C@@H]([C@H](C)CC(=O)O)C(=O)N[C@@H](CC(=O)c2ccccc2N)C(=O)O[C@@H]1C [Daptomycin] , the value recorded as its MIC is 1

Field MIC (entry CCO/N=C(\C(=O)N[C@@H]1C(=O)N2C(C(=O)[O-])=C(Sc3nc(-c4cc[n+](C)cc4)cs3)CS[C@H]12)c1nsc(N)n1 [Ceftaroline] ) reads 0.25

Sample CN[C@H](CC(C)C)C(=O)N[C@H]1C(=O)N[C@@H](CC(N)=O)C(=O)N[C@H]2C(=O)N[C@H]3C(=O)N[C@H](C(=O)N[C@H](C(=O)O)c4cc(O)cc(O)c4-c4cc3ccc4O)[C@H](O)c3ccc(c(Cl)c3)Oc3cc2cc(c3O[C@@H]2O[C@H](CO)[C@@H](O)[C@H](O)[C@H]2O[C@H]2C[C@](C)(N)[C@H](O)[C@H](C)O2)Oc2ccc(cc2Cl)[C@H]1O [Vancomycin] ; MIC observed: 2

Lab note: measured MIC of CC(=O)NC[C@H]1CN(c2ccc(N3CCOCC3)c(F)c2)C(=O)O1 [Linezolid] was 4

----------
System: Staphylococcus aureus PB1511
Construct: PB1511
method_summary: microbe, parasite or virus in culture
Design: species or system Staphylococcus aureus clinical blood isolates and ATCC 29213; Broth microdilution MIC in cation-adjusted Mueller-Hinton broth with 50 ug/mL CaCl2, EUCAST reading, 37 C
condition: PB1511, 16 h, replicate MIC, MHB + 50 ug/mL CaCl2
Task for the reader: assign each of the following compounds its reported MIC.
Numeric answer only, unit µg/mL assumed.

GET /values?item= `CC(=O)NC[C@H]1CN(c2ccc(N3CCOCC3)c(F)c2)C(=O)O1` &system= Staphylococcus aureus PB1511 returns MIC: 4

Staphylococcus aureus PB1511 MIC of `CCO/N=C(\C(=O)N[C@@H]1C(=O)N2C(C(=O)[O-])=C(Sc3nc(-c4cc[n+](C)cc4)cs3)CS[C@H]12)c1nsc(N)n1` is 0.5

The compound `CCCCCCCCCC(=O)N[C@@H](Cc1c[nH]c2ccccc12)C(=O)N[C@H](CC(N)=O)C(=O)N[C@@H](CC(=O)O)C(=O)N[C@@H]1C(=O)NCC(=O)N[C@@H](CCCN)C(=O)N[C@@H](CC(=O)O)C(=O)N[C@H](C)C(=O)N[C@@H](CC(=O)O)C(=O)NCC(=O)N[C@H](CO)C(=O)N[C@@H]([C@H](C)CC(=O)O)C(=O)N[C@@H](CC(=O)c2ccccc2N)C(=O)O[C@@H]1C` , tested on Staphylococcus aureus PB1511, showed MIC of 2

Tested system Staphylococcus aureus PB1511; MIC recorded for `CN[C@H](CC(C)C)C(=O)N[C@H]1C(=O)N[C@@H](CC(N)=O)C(=O)N[C@H]2C(=O)N[C@H]3C(=O)N[C@H](C(=O)N[C@H](C(=O)O)c4cc(O)cc(O)c4-c4cc3ccc4O)[C@H](O)c3ccc(c(Cl)c3)Oc3cc2cc(c3O[C@@H]2O[C@H](CO)[C@@H](O)[C@H](O)[C@H]2O[C@H]2C[C@](C)(N)[C@H](O)[C@H](C)O2)Oc2ccc(cc2Cl)[C@H]1O` was 2
